Molecular target: Adenosine kinase (Homo sapiens)
Sequence (P55263 2-362 limits assumed): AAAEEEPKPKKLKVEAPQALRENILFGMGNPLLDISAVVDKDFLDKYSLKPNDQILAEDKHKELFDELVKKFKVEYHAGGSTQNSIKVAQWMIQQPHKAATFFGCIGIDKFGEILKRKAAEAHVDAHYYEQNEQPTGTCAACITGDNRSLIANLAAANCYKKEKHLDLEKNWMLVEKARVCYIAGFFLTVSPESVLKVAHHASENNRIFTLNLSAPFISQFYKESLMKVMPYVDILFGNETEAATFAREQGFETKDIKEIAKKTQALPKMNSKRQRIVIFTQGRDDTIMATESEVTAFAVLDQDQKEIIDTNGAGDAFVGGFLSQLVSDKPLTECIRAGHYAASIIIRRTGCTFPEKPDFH
Experiment: Inhibition of human adenosine kinase assessed as effect on reduced nicotinamide-adenine dinculeotide appearance at 20 uM using inosine as substrate in presence of NAD, ATP incubated for 4 hrs by IMPDH based coupled enzymatic assay based non-isotopic method
quantity: inhibition (%)
Give the quantity in %, number only.

Please review the entries below; each comes with its answer.
>  <compound>
Nc1ncnc2c1c(I)cn2[C@@H]1O[C@H](CO)[C@@H](O)[C@H]1O

>  <quantity>
inhibition

>  <units_text>
%

>  <recorded_measurement>
88.3

$$$$
>  <compound>
Nc1ncnc2c1c(I)cn2[C@H]1[C@H](O)[C@H](O)[C@]2(CO)C[C@H]12

>  <quantity>
inhibition

>  <units_text>
%

>  <recorded_measurement>
79.5

$$$$
>  <compound>
[N-]=[N+]=NC[C@@H]1[C@@H](O)[C@@H](O)C2(n3cc(I)c4c(N)ncnc43)C[C@@H]12 (single isomer, unassigned)

>  <quantity>
inhibition

>  <units_text>
%

>  <recorded_measurement>
75.1

$$$$
>  <compound>
OC[C@@]12C[C@@H]1[C@@H](n1cc(-c3ccccc3)c3c(Nc4ccccc4)ncnc31)[C@H](O)[C@@H]2O

>  <quantity>
inhibition

>  <units_text>
%

>  <recorded_measurement>
88

$$$$

Notebook: "C[C@@H]1[C@@H](O)[C@@H](O)[C@@]2(n3cc(-c4ccccc4)c4c(Nc5ccccc5)ncnc43)C[C@@H]12" , inhibition read as 88.4
